Recorded measurements of kcat, one per entry
# Substrate: NC(=O)C[C@H](N)C(=O)O
# Protocol: Nessler reagent assay of ammonia, Michaelis-Menten fit
# Type: biochemical, Thermococcus litoralis
# Measurement Context: pH 10, 80 °C, 0.5-18.0 mM L-asparagine, free enzyme

Protein: L-asparaginase Tli10209 (Thermococcus litoralis DSM 5473; D50G/T70A) (protein) MSEKRKLERRGAEDMKRILIIGTGGTIASAKTDAGFKSVLTIDEILEKAGIKLKNGYEIDTRNILNIDSALIQPEDWERIAKEVYKALEDYDGIVITHGTDTLAYTASMLTFMIRGINKPVVLTGSMRPVTEEESDAPRNLKAAIRFAMEDVSGIFVAFMDKIMLGCRTSKIRALGLNAFMSINYPDVAYVKGEEVIYNLPQKRFKPKGEPVLDTKYEPRVVFIRLTPGLDGNAIDALVKAGYRGIVLEGYGAGGIPYRKRDILSKIREITPQIPVVMTTQALYDGVDLTKYEVGRKALEAGIIPAKDMTKETTITKLMWALGHTKNVEEVKEIMHTNYADEIEG
kcat: 2050 s⁻¹

Protein: L-asparaginase Tli10209 (Thermococcus litoralis DSM 5473) (protein) MSEKRKLERRGAEDMKRILIIGTGGTIASAKTDAGFKSVLTIDEILEKADIKLKNGYEIDTRNILNIDSTLIQPEDWERIAKEVYKALEDYDGIVITHGTDTLAYTASMLTFMIRGINKPVVLTGSMRPVTEEESDAPRNLKAAIRFAMEDVSGIFVAFMDKIMLGCRTSKIRALGLNAFMSINYPDVAYVKGEEVIYNLPQKRFKPKGEPVLDTKYEPRVVFIRLTPGLDGNAIDALVKAGYRGIVLEGYGAGGIPYRKRDILSKIREITPQIPVVMTTQALYDGVDLTKYEVGRKALEAGIIPAKDMTKETTITKLMWALGHTKNVEEVKEIMHTNYADEIEG
kcat: 2300 s⁻¹
